src = PubChem BioAssay (NCI)

Tested on: SF-268 CNS
Assay: NCI-60 one-dose screen, 48 h
Settings: 10 µM unless noted
This is part of a sample that, as a whole, favours compounds with a hit. Of some 83,000 tested, about 20% had one in any assay. Active and inactive are the calls of the source. Rule for the calls: active = growth percent below 10; inactive = the rest.
Tick one outcome: active, inactive

// below: answered compounds
[in] Which result was noted for this compound in the test: C=C(C)[C@@H]1CC[C@]2(C(=O)N3CCNCC3)CC[C@]3(C)[C@H](CC[C@@H]4[C@@](C)(CCC(=O)N5CCNCC5)[C@H](C(=C)C)CC[C@]43C)[C@@H]12
[out] inactive

[in] // return assay outcome for CC(C)n1c2ccc(Br)cc2c2c3c(c4c5ccccc5ccc4c21)C(=O)NC3=O
[out] inactive

[in] Could you please tell me the result logged for O=C(Nc1cc(Cl)cc(Cl)c1)Oc1c(Cl)c(Cl)c(Cl)c(Cl)c1Cl in this assay?
[out] inactive

[in] State the result this test recorded for CC(C)C1C2=C(NCCN1C(=O)c1ccncc1)C(C)(C)N(Cc1ccccc1)C2=O (centres undefined) .
[out] inactive

[in] Recorded call for CCOC(=O)NC(=S)n1oc(=O)c2ccccc21 ?
[out] inactive

[in] # lookup: test call for C/C(=C(\c1ccc(OCCN2CCCCCC2)cc1)c1ccc(OC(=O)c2ccccc2)cc1)c1ccc(Cl)cc1
[out] inactive

Continuing:
[in] Outcome logged for COc1ccc(Oc2ccc(/C=C/C(=O)c3cc4ccccc4oc3=O)cc2)cc1 in this assay:
[out] inactive

[in] Please let me know the test result on file for O=[N+]([O-])c1ccccc1Nc1ccc2ccccc2c1 .
[out] inactive

[in] Returns: the outcome recorded for O=C(Oc1ccc2c(c1)sc1nc(-c3ccccc3)[nH]c(=O)c12)C(F)(F)F in this assay.
[out] inactive

[in] Which result was noted for this compound in the test: c1ccc(Nc2nc3c(s2)CCc2c[nH]cc2-3)nc1
[out] inactive

---

System: HCT-15 colon
Assay: NCI-60 one-dose screen, 48 h
Conditions: 10 µM unless noted
About 83,000 compounds went through this panel and 20% of them were active in at least one assay; those are over-represented in the sample as a whole. Active and inactive are the calls of the source. How the source made its calls: active means growth percent below 10; inactive means the rest.
Hello, when you answer, please use one of the following outcomes: active, inactive

Study these solved cases before continuing.
[in] Recorded test outcome, item CCOC(=O)NCCCC(=O)NCCc1ccccc1
[out] inactive

[in] Could you please tell me the result logged for COc1ccc2c(c1)c(-c1nc(-c3ccc4ccccc4c3)cs1)cn2C in this assay?
[out] inactive

[in] Record lookup: outcome of this test for CS(=O)(=O)Nc1cc(-c2ccc3ncnc(Nc4ccc5c(cnn5Cc5ccccc5F)c4)c3c2)cnc1Cl ?
[out] inactive

[in] Can you look up the reported call for CCOC(=O)c1cnn(CC(C)O)c1NC(=O)NCc1ccccc1C(F)(F)F (configuration not stated) for me?
[out] inactive

[in] Short answer needed: outcome of this test for C[C@@H]1NC(=O)[C@H](Cc2ccccc2)N(Cc2cccnc2)C1=O ?
[out] inactive

---
[in] GET /call?item= Cc1ccc2c(/C=C/C(=O)c3cc(CN4CCOCC4)c(O)c4nc(C)ccc34)cc(CN3CCOCC3)c(O)c2n1 returns the recorded outcome of this test.
[out] active

[in] GET /call?item= Cc1nc2ccccc2c(/C=C/c2ccc(F)cc2)c1C(=O)/C=C/c1ccccc1 returns the recorded outcome of this test.
[out] active

[in] What was the test verdict on CCCCCc1ccc(S(=O)(=O)Nc2cc(-c3csc(NC(C)=O)n3)ccc2N2CCN(C)CC2)cc1 ?
[out] active

[in] So what was the verdict on Cc1cn(C)cn1 in this test?
[out] inactive

[in] Per the records of this test, what outcome belongs to C=C(C)[C@@H]1CC[C@]2(COC3CCCCO3)CC[C@]3(C)[C@H](CC[C@@H]4[C@@]5(C)C=C(C=O)C(=O)C(C)(C)[C@@H]5CC[C@]43C)[C@@H]12 (some centres not stated) ?
[out] active

[in] What call does the record list for C(=C(\C1=NCCN1)n1ccc2ccccc21)/c1ccccc1 ?
[out] inactive

[in] Name the outcome recorded for C#CCOc1cccc(Nc2ncnc3c2ncn3C2CCN(C(=O)CCl)C2)c1 (configuration not stated) in the assay.
[out] active

---

System: SW-620 colon
Assay: NCI-60 one-dose screen, 48 h
Settings: 10 µM unless noted
This is part of a sample that, as a whole, favours compounds with a hit. Of some 83,000 tested, about 20% had one in any assay. Activity calls are given as the source filed them. How the source made its calls: active means growth percent below 10; inactive means the rest.
Please answer using one outcome listed in active, inactive

Worked examples, 3 compounds total:
[in] For COc1ccccc1S(=O)(=O)Nc1ccc2c3c(cc(CCC(=O)NCCCCNc4cccc5c4C(=O)N(C4CCC(=O)NC4=O)C5=O)cc13)C(=O)N2C (centres undefined) , which call appears in the assay record?
[out] active

[in] Give the logged outcome of this assay for the following compound: CCN(CC)c1ccc(-c2cc(-c3cc(OC)c(OC)c(OC)c3)nc(N3CCC(O)CC3)c2C#N)cc1
[out] active

[in] Please share the test call associated with CN(C)c1ccc(/C=C2\C=C(c3nc4ccccc4s3)OC2=O)cc1 .
[out] inactive

New cases:
[in] Identify the outcome logged in this assay for the compound shown: CCn1cc(Cc2cc(C(=O)Nc3cc4cc(OC)c(OC)cc4c(C)n3)ccc2Cl)cn1
[out] inactive

[in] Assay result, entry CCOC(=O)c1c(C)nc2ccccc2c1/C=C/c1ccc(F)cc1 — outcome?
[out] inactive

[in] # lookup: test call for COc1ccc(C2[C@@H](c3ccccc3)C(=O)N2c2cc(OC)c(OC)c(OC)c2)cc1F (some centres undefined)
[out] inactive

[in] Field: outcome | Entry: CC(O)CNC(Cc1ccccc1)c1ccc2c(c1)OCO2 (centres undefined)
[out] inactive

[in] Field: outcome | Entry: COc1cc(/C=C/C(=O)c2cccc(-n3cc(-c4ccc(Cl)cc4)[nH]c3=O)c2)ccc1O
[out] inactive

[in] What call does the record list for COc1ccc2cc(C(=O)N3CCC([C@@H](C)C(=O)NCc4ccc5c(c4)OCO5)CC3)[nH]c2c1 ?
[out] inactive

[in] Recorded call for CCCCCCCCCCOC(=O)c1nn(C(C)=O)c2cc(C)c(C)cc12 ?
[out] inactive

---

# key: entry, value: growth
System: MOLT-4 leukemia
Test: NCI-60 one-dose screen, 48 h (100 = growth as untreated, 0 = no growth, -100 = all killed)
Settings: 10 µM unless noted
Compounds without any hit were thinned out: in the full panel of roughly 83,000, 20% have a hit.
Lab book: enter the figure in %, no units written.

Record excerpt, results attached:
[in] Query: growth; subject: COc1cc2ncnc(Nc3ccc(S(=O)(=O)Nc4nccs4)cc3)c2cc1OCCCN1CCCC1
[out] 104

[in] I have this molecule here, CN1CCOCCN(C)Cc2ccc3ccc(cc3c2)CN(C)CCOCCN(C)Cc2ccc3ccc(cc3c2)C1 , and I need its recorded growth.
[out] 74

[in] Which growth reading was recorded for the molecule Fc1ccc(/C=C/[C@@H]2C[C@@H](F)CCO2)cc1 ?
[out] 70.1

[in] Name the recorded growth for Cc1cc(=O)oc2cc(Oc3nc(Br)cn4c(Br)cnc34)ccc12 .
[out] 87.5

[in] Given COc1ccc(C=Nc2c(C(=O)Nc3cccc(Cl)c3C)sc3nc(C)c(C(=O)/C=C/c4ccc(OC)cc4)cc23)cc1 , state its recorded growth.
[out] 52.2

[in] I am curious: what growth value has been reported for CC1(C)N=C(N)N=C(N)N1c1cc(Cl)ccc1Cl ?
[out] 71.1

[in] Reported growth, molecule COC(=O)/C=C1/SC(=NCc2ccccc2)N(CCc2c[nH]c3ccccc23)C1=O : ____
[out] 3.29

[in] What growth value was documented for this molecule, COC1C(O)CC(OC2CC(OC3CC(O[C@@H]4C(=O)c5c(cc6cc(OC7CC(OC8CC(O)C(O)C(C)O8)C(O)C(C)O7)c(C)c(O)c6c5O)CC4[C@H](OC)[C@@H](O)C(C)=O)OC(C)C3O)OC(C)C2O)OC1C (some centres undefined) ?
[out] -2.23

Switching to the query record.
[in] For Nc1ccc(-c2ccncc2)cc1NC(=O)N1CCCC1 , what is its reported growth?
[out] 87

---

Tested on: A498 renal
Experiment: NCI-60 one-dose screen, 48 h (100 = growth as untreated, 0 = no growth, -100 = all killed)
Conditions: 10 µM unless noted
The panel holds about 83,000 compounds, 20% with a hit somewhere; the sample as a whole holds those more often.
EXPERIMENTAL READOUT: growth (%)
Please respond with the number in % and leave the unit unwritten.

Please review the entries below; each comes with its answer.
[in] growth lookup needed for CCN1C(=O)N(CC)C2C1NN=c1s/c(=C\c3ccc(OC)cc3)c(=O)n12 (stereo unspecified) , thanks.
[out] 11.8

[in] Endpoint output: growth of CCOC(=O)c1nnn(Cc2cc(=O)oc3ccc(O)cc23)c1C . Value?
[out] 101

[in] GET /values?readout=growth&item= Cc1cn(C)cn1
[out] 114

[in] I have this compound here, CCCCCCCCn1ccc2cc(NC(=O)CN=[N+]=[N-])ccc21 , and I need its recorded growth.
[out] 96.7

[in] Fill in the blank: the reported growth of Oc1nc(NCc2ccccc2)sc1/C=C1\C=Nc2ncccc21 is ____.
[out] 63.4

***
[in] Name the recorded growth for CCOC(=O)NCCCC(=O)NCCc1ccccc1 .
[out] 106

[in] I have this compound here, Nc1cc(Br)cc2c1[nH]c(=O)c1ccccc12 , and I need its recorded growth.
[out] 92.5
